Every entry's value here was drawn from patent US8669246B2.

# PROTOCOL_SUMMARY: Estimation of concentration in plasma after oral administration in rats using ex vivo bioassay method
# CONDITION_PARAMETERS: male, Wistar, rat, 2 hours after oral administration, estimated by ex vivo bioassay from standard curve
RECORDED_ENDPOINT: concentration at 2 h (nM)

>  <CHEM_SMILES>
CONS(=O)(=O)NC(=O)c1nc(CN(CCCc2ccccc2)C(=O)c2cc(OC)cc(OC)c2)sc1C

>  <concentration at 2 h / nM>
1400

$$$$
>  <CHEM_SMILES>
COc1cc(C(=O)N(CCCc2ccccc2)Cc2nc(C(=O)NS(=O)(=O)N(CCO)CCF)cs2)cc(OC)c1C

>  <concentration at 2 h / nM>
1300

$$$$
>  <CHEM_SMILES>
COc1cc(OC)cc(C(=O)N(CCCc2ccccc2)Cc2nc(C(=O)NS(C)(=O)=O)c(Cl)s2)c1

>  <concentration at 2 h / nM>
5600

$$$$
>  <CHEM_SMILES>
COC(=O)N(C)S(=O)(=O)NC(=O)c1csc(CN(CCCc2ccccc2)C(=O)c2cc(OC)c(C)c(OC)c2)n1

>  <concentration at 2 h / nM>
2400

$$$$
>  <CHEM_SMILES>
COc1cc(C(=O)N(CCCc2ccccc2)Cc2nc(C(=O)NS(=O)(=O)N(CCO)CCO)c(C)s2)cc(OC)c1C

>  <concentration at 2 h / nM>
2200

$$$$
>  <CHEM_SMILES>
CCNS(=O)(=O)NC(=O)c1csc(CN(CCCc2ccccc2)C(=O)c2cc(OC)c(C)c(OC)c2)n1

>  <concentration at 2 h / nM>
2100

$$$$

[1] CCN(CCO)S(=O)(=O)NC(=O)c1csc(CN(CCCc2ccccc2)C(=O)c2cc(OC)c(C)c(OC)c2)n1
[2] COc1cc(C(=O)N(CCCc2ccccc2)Cc2nc(C(=O)NS(=O)(=O)N(C)CCF)c(C)s2)cc(OC)c1C
### Prompt Hey, which is lower on measured concentration at 2 h, 1 or 2 ? Select an item and report its label.
### Response 1

---

# Tested on: LPA-induced increase in urethral pressure
# PROTOCOL_SUMMARY: Inhibitory action on LPA-induced increase in urethral pressure in rats under anesthesia
# Format: in vivo, rat (male Wistar)
# CONDITION_PARAMETERS: Rattus norvegicus, 5 min; 0.1 mg/kg intravenous, LPA (1-oleoyl) 3 mg/kg iv after 5 minutes, anesthetized rats, vs solvent; read-out: Inhibitory rate
RECORDED_ENDPOINT: inhibition in vivo at 0.1 mg/kg (%)
Number in %, nothing else.

Some entries whose results are on file:
>  <MOLECULE>
COc1ccc(C2(C(=O)N(CCCc3ccco3)Cc3nc(C(=O)NS(=O)(=O)N(C)C)c(C)s3)CC2)cc1 [Example 233]

>  <RECORDED_ENDPOINT>
inhibition in vivo at 0.1 mg/kg

>  <READING>
38

$$$$
>  <MOLECULE>
COc1cc(C(=O)N(CCCc2ccccc2)Cc2ccc(C(=O)NS(N)(=O)=O)o2)cc(OC)c1C [Example 123]

>  <RECORDED_ENDPOINT>
inhibition in vivo at 0.1 mg/kg

>  <READING>
39

$$$$
>  <MOLECULE>
CCc1c(OC)cc(C(=O)N(CCCc2ccccc2)Cc2nc(C(=O)NS(=O)(=O)NC)c(C)s2)cc1OC [Example 153]

>  <RECORDED_ENDPOINT>
inhibition in vivo at 0.1 mg/kg

>  <READING>
21

$$$$
>  <MOLECULE>
COc1cc(C(=O)N(CCCc2ccccc2)Cc2nc(C(=O)NS(N)(=O)=O)cs2)cc(OC)c1Br [Example 132]

>  <RECORDED_ENDPOINT>
inhibition in vivo at 0.1 mg/kg

>  <READING>
42

$$$$
>  <MOLECULE>
CNS(=O)(=O)NC(=O)c1csc(CN(CCCc2ccsc2)C(=O)c2cc(OC)c(C)c(OC)c2)n1 [Example 137]

>  <RECORDED_ENDPOINT>
inhibition in vivo at 0.1 mg/kg

>  <READING>
17

$$$$
>  <MOLECULE>
CNS(=O)(=O)NC(=O)c1nc(CN(CCCc2ccccc2)C(=O)c2cc(OC)c(Cl)c(OC)c2)sc1Cl [Example 162]

>  <RECORDED_ENDPOINT>
inhibition in vivo at 0.1 mg/kg

>  <READING>
21

$$$$
>  <MOLECULE>
CNS(=O)(=O)NC(=O)c1nc(CN(CCCc2ccccc2)C(=O)c2cc(OC)c(C)c(OC)c2)cs1 [Example 63]

>  <RECORDED_ENDPOINT>
inhibition in vivo at 0.1 mg/kg

>  <READING>
28

$$$$
>  <MOLECULE>
COc1cc(C(=O)N(CCCc2ccc(C)o2)Cc2nc(C(=O)NS(N)(=O)=O)cs2)cc(OC)c1C [Example 111]

>  <RECORDED_ENDPOINT>
inhibition in vivo at 0.1 mg/kg

>  <READING>
56

$$$$
>  <MOLECULE>
CCNS(=O)(=O)NC(=O)c1csc(CN(CCCc2ccccc2)C(=O)c2cc(OC)c(C)c(OC)c2)n1 [Example 71]

>  <RECORDED_ENDPOINT>
inhibition in vivo at 0.1 mg/kg

>  <READING>
18

$$$$
>  <MOLECULE>
COc1cc(OC)cc(C(=O)N(CCCc2ccccc2)Cc2nc(C(=O)NS(C)(=O)=O)c(Cl)s2)c1 [Example 145]

>  <RECORDED_ENDPOINT>
inhibition in vivo at 0.1 mg/kg

>  <READING>
16

$$$$

### Prompt LPA-induced increase in urethral pressure / inhibition in vivo at 0.1 mg/kg / CCS(=O)(=O)NC(=O)c1nc(CN(CCCc2ccccc2)C(=O)[C@H](O)c2ccc(OC)cc2)sc1C [Example 266] : value?
### Response 15

### Prompt Ok, now COc1cc(C(=O)N(CCCc2ccccc2)Cc2nc(C(=O)NS(=O)(=O)CCO)cs2)cc(OC)c1C [Example 167]
### Response 35

### Prompt Same again, this time with C=Cc1c(OC)cc(C(=O)N(CCCc2ccccc2)Cc2nc(C(=O)NS(N)(=O)=O)cs2)cc1OC [Example 130]
### Response 39

### Prompt What would you report for COc1ccc(C2(C(=O)N(CCCc3cccc(F)c3)Cc3nc(C(=O)NS(=O)(=O)N(C)C)c(C)s3)CC2)nc1 [Example 208] ?
### Response 14

### Prompt Then COc1cc(C(=O)N(CCCc2ccccc2)Cc2nc(C(=O)N(C)S(N)(=O)=O)cs2)cc(OC)c1C [Example 9] ?
### Response 28

---

RECORDED_ENDPOINT: melting point

Illustrative cases are given below, each with its answer.
>  <COMPOUND>
COc1cc(C(=O)N(CCCc2ccccc2)Cc2nc(C(=O)NS(N)(=O)=O)cs2)cc(OC)c1C1CC1

>  <melting point>
147 to 149 °C

$$$$
>  <COMPOUND>
CCS(=O)(=O)NC(=O)c1nc(CN(CCCc2ccccc2)C(=O)[C@H](O)c2ccc(OC)cc2)sc1C

>  <melting point>
123 to 125 °C

$$$$
>  <COMPOUND>
COc1ccc([C@@H](O)C(=O)N(CCCc2cccs2)Cc2nc(C(=O)NS(=O)(=O)N(C)C)c(C)s2)cc1

>  <melting point>
118 to 120 °C

$$$$
>  <COMPOUND>
CNS(=O)(=O)NC(=O)c1nc(CN(CCCc2cccs2)C(=O)[C@H](O)c2ccc(OC)cc2)sc1C

>  <melting point>
106 to 109 °C

$$$$

### Prompt Which melting point reading was recorded for the compound COc1ccc(C(O)C(=O)N(CCCc2ccccc2)Cc2nc(C(=O)NS(N)(=O)=O)c(C)s2)cc1 (centres unmarked) ?
### Response 120 to 121 °C

### Prompt Try this compound next: COc1cc(C(=O)N(CCCc2ccccc2F)Cc2nc(C(=O)NS(N)(=O)=O)cs2)cc(OC)c1C
### Response 145 to 146 °C

---

Entries and their melting point

Reference set (4 entries):
>  <COMPOUND>
COc1cc(C(=O)N(CCCc2ccccc2F)Cc2nc(C(=O)NS(=O)(=O)N(C)C)cs2)cc(OC)c1C [Example 119]

>  <melting point>
128 to 131 °C

$$$$
>  <COMPOUND>
COc1cc(C(=O)N(CCCc2ccccc2)Cc2nc(C(=O)NS(N)(=O)=O)cs2)cc(OC)c1C [Example 69]

>  <melting point>
147 to 150 °C

$$$$
>  <COMPOUND>
COc1ccc([C@@H](O)C(=O)N(CCCc2ccccc2)Cc2nc(C(=O)NS(C)(=O)=O)c(C)s2)c(F)c1 [Example 277]

>  <melting point>
121 to 123 °C

$$$$
>  <COMPOUND>
COc1cc(OC)cc(C(=O)N(CCCc2ccccc2)Cc2nc(C(=O)NS(C)(=O)=O)c(Cl)s2)c1 [Example 145]

>  <melting point>
113 to 114 °C

$$$$

Moving on to another compound below.
### Prompt Give the measured melting point of COc1cc(C(=O)N(CCCc2ccccc2)Cc2nc(C(=O)NS(N)(=O)=O)co2)cc(OC)c1C [Example 121] .
### Response 136 to 141 °C
